Biological target: Bcl-B (Homo sapiens)
Sequence (Q9HD36 1-182 limits assumed): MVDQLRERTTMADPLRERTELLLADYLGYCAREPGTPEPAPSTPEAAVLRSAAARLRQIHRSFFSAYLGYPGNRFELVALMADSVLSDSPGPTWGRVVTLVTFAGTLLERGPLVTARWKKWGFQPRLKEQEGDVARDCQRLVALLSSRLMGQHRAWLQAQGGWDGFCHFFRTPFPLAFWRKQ
observed property: pIC50
In simple prose, pIC50 is minus the logarithm base ten of a concentration in moles per litre.

[in] // lookup pIC50 for CC(C)C(C(=O)O)N1C(=O)/C(=C/c2ccc(Br)cc2)SC1=S (stereo not shown) [BH3I-1, reference compound]
[out] 5.97

From: patent US20090069324A1
